# TESTED SYSTEM: human type 1 5α-reductase (Homo sapiens, UniProt P18405)
# Sequence (P18405 whole entry): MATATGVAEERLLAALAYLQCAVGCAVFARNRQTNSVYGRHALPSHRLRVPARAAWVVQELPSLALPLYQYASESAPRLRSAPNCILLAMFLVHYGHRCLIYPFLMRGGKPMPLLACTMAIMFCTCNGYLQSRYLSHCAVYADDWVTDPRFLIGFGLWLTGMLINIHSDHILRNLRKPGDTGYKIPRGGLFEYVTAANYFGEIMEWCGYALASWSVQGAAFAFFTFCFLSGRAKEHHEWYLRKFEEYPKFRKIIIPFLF
# EXPERIMENTAL PROTOCOL: 5α-reductase in vitro inhibitory activity, human type 1
pIC50: −log10 of the molar value.
OBSERVABLE: pIC50

# COMPOUND, pIC50
measured = [
    ("CC(C)(C)c1ccc(-c2ccc(C(F)(F)F)cc2NC(=O)[C@H]2CC[C@H]3[C@@H]4CNC5=CC(=O)CC[C@]5(C)[C@H]4CC[C@]23C)cc1", "< 7.00"),
    ("CC1(C)C2CCC(CNC(=O)[C@H]3CC[C@H]4[C@@H]5CNC6=CC(=O)CC[C@]6(C)[C@H]5CC[C@]34C)C1C2 (stereo partly shown)", "7.00 to 8.00"),
    ("COc1ccc(C2(NC(=O)[C@H]3CC[C@H]4[C@@H]5CNC6=CC(=O)CC[C@]6(C)[C@H]5CC[C@]34C)CCCCC2)cc1", "> 8.00"),
]

Return reported pIC50; argument: CC12CCC(=O)C=C1NCC1C2CCC2(C)C(C(=O)Nc3ccccc3C(F)(F)F)CCC12 (stereo not shown)
7.00 to 8.00

Return reported pIC50; argument: C[C@]12CC[C@H]3[C@@H](CNC4=CC(=O)CC[C@@]43C)[C@@H]1CC[C@@H]2CNC(=O)NC12CC3CC(CC(C3)C1)C2
> 8.00

Return reported pIC50; argument: C[C@]12CC[C@H]3[C@@H](CNC4=CC(=O)CC[C@@]43C)[C@@H]1CC[C@@H]2C(=O)Nc1cccc2c1C(=O)c1ccccc1-2
7.00 to 8.00

Return reported pIC50; argument: C[C@]12CC[C@H]3[C@@H](CNC4=CC(=O)CC[C@@]43C)[C@@H]1CC[C@@H]2C(=O)NN(c1ccccc1)c1ccccc1
7.00 to 8.00

The reported numbers originate from patent EP0674651B1.
